testedSystem: GORASP2, Q9H8Y8
assayInfo: holdup assay
Set-up: key: below the threshold = too weak to quantify, mostly under pKd 3.1 to 4
appliedConditions: plain residues with an end cap or a label only (N-terminal biotin on a linker: ado-ado)
Assign pKd to each entry below.
Reply briefly: the number, and no unit.

Give pKd for the following binder: PKSNSSKEYV [CLDN7, O95471]
3.6

Give pKd for the following binder: ATKDKKITTV [EXOC4, Q96A65]
4.64

Give pKd for the following binder: PSVYSRSQYV [CLDN8, P56748]
4.88

Give pKd for the following binder: MQILSKPEFI [NPSR1, Q6W5P4]
4.61

Give pKd for the following binder: AHGSTRDQSI [KCNB1, Q14721]
3.67

Give pKd for the following binder: THHRKIHTRV [ZNF599, Q96NL3]
4.25

Give pKd for the following binder: VCMGDHWFDV [PRKN, O60260]
4.77

Give pKd for the following binder: EFKQTSSFLV [JAM1, Q9Y624]
4.83
